assay-system: monoclonal antibody mAB 198
assay-details: peptide microarray, fluorescence, cyclic peptide
Where no end group is shown, it is not given here.
recorded-metric: relative signal [%] (%)

{"binder": "GSLRFNPADYG (also: cyclic peptide, mode of cyclisation not given here)", "unit-descriptor": "%", "experimental-result": 10.4}

1: DVRLRVNPADY (also: cyclic peptide, mode of cyclisation not given here)
2: RIRWNPADY (also: cyclic peptide, ring type and places not given here)
Which one would you say has the larger relative signal [%] value: 1 , or 2 ? Answer by stating the label of the chosen item. 1
(1: 30.2%, 2: 11.5%)
